target: T1, His-tagged human HER3 (human, UniProt P21860 20-643); assay: BLI (Octet QK384), antibody on anti-human IgG capture tips, His-tagged human HER3 in solution, global one-site fit
T1 construct: Antigen of the BLI experiments and of the HER2-Fc dimerisation ELISA; also called HER3 His; not shown: His tag
Recorded measurements of Kd, one per entry
measure: Kd

>  <binder>
anti-HER3 clone 10D1_c90 IgG1 (antibody, V domains shown, Humanised 10D1 variant, IgG1/kappa) VH: QVQLQESGPGLVKPSQTLFLTCTVSGYSITSGYSWHWIRQHPGKGLEWIGSIRYSGGTDYNPSLKSLVTISVDTSKNQFSLKLSSVTAADTAVYYCARMTTAPWYPFDYWGQGTTVTVSS VL: DIQMTQSPSSVSASVGDRVTFTCKASQIVGSNVAWYQQKPGKAPEPLIYSASYLYSSVPSRFSGSGSGTEFTMTISSLEPEDFATYYCQQYTTHPLTFGPGTKVEIKR

>  <measure>
Kd

>  <test.value>
< 1 pM

$$$$
>  <binder>
anti-HER3 clone 10D1_c75 IgG1 (antibody, V domains shown, Humanised 10D1 variant, IgG1/kappa) VH: DVQLQEWGAGLLKPSETLSLTCAVTGYSITSGYSWHWIRQFPGNGLEWIGSIHYSGGTNYNPTLKSRITISRDTSKNQFSLKLSSVTAADTAVYFCARMTTAPRYPFDYWGQGTLVTVSS VL: DIVMTQSPSSLSASVGDLVTITCKASQIVGSNVAWYQMKPGKSPKPLIYSASYLYFGVPSRFSGSGSGTDFTLTISSLQPEDVAEYFCQQYSSHPLTFGPGTKVEIKR

>  <measure>
Kd

>  <test.value>
< 1 pM

$$$$
>  <binder>
anti-HER3 clone 10D1_c76 IgG1 (antibody, V domains shown, Humanised 10D1 variant, IgG1/kappa) VH: DVQLQEWGAGLLKPSETLSLTCAVTGYSITSGYSWHWIRQFPGNGLEWIGSIHYSGGTNYNPSLKSRITISRDTSKNQFSLKLSSVTAADTAVYFCARMTTAPRYPFDYWGQGTLVTVSS VL: DIVMTQSPSSLSASGGDRVTITCKASQIVGYNVAWYQQKPGKSPKPLIYSASYLYSDVPSRFSASGSGTDFTLTISSLQPEDVAEYFCQQYSSHPLTFGPGTKVEIKR

>  <measure>
Kd

>  <test.value>
< 1 pM

$$$$
